- measurement.description: chemical genetic growth profiling, strain panel (AID 1159580);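 note: tested at 20 µM; growth read once vehicle control cultures reached saturation at 30 °C; 1 = growth at the plate median or of vehicle wells; lower values mean less growth of the strain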
- experimental.setup: S. cerevisiae deletion strains, growth OD, locus YCL061C, strain MRC1, active compounds read low
About 2,000 (36%) of roughly 5,500 compounds were called active. Roughly 18% stayed inconclusive and do not appear here. The list shows a part of the results.
Please provide measured normalized growth for the entries that follow.
Give bare numbers.

Known results for molecules:
O=C(O)C1=C(CSc2nnnn2CS(=O)(=O)O)CS[C@@H]2C(NC(=O)[C@H](O)c3ccccc3)C(=O)N12 (stereo partly specified): 0.971
CN1CCCCC1c1ccc(-c2cccnc2)nc1 (stereo unspecified): 0.98
O=C(CCc1ccc(O)cc1)c1c(O)cc(O)cc1O: 0.99
CCOC(=O)c1ccc(NC(=S)N2CCOCC2)cc1: 0.939
COc1ccc(CC(=O)c2ccc(O)cc2O)cc1: 0.965

Below are some molecules; for each one, tell me its normalized growth.
1. O=[N+]([O-])c1ccc(NCCCCCO)nc1
2. O=c1c(O)c(-c2ccccc2)oc2cccc(O)c12

Result:
[0.977, 0.821]

Below are some molecules; for each one, tell me its normalized growth.
1. CC(=CC1CCC(C)C2C1=C(C)CC2O)C(=O)O (stereo unspecified)
2. Cc1cc(S(=O)(=O)NC(Cc2ccc([N+](=O)[O-])cc2)C(=O)O)c(Cl)cc1Cl (stereo unspecified)
3. CC(=O)O[C@@H]1C2CC[C@@H]3C1(C[C@@H](O)[C@@]1(O)[C@@H](C[C@H](O)C1(C)C)[C@]3(C)O)C[C@@]2(C)O (stereo partly specified)
4. COc1ccc([C@@H](C)C(=O)c2ccc(O)cc2O)cc1

Result:
1.02
1
0.995
0.994
